- targetEntity: T1, EGFRvIII expressed on cells (CHO^EGFRvIII, F98^EGFRvIII) (UniProt P00533 25-1210)
- T1 construct: whole, on cells; the vIII deletion must be applied; also called deletion mutant EGFRvIII
- assaySummary: cell-based or functional assay
Cytotoxic potency EC50 values by entry
For clarity, give the value followed by its unit.

Illustrative cases are given below, each with its answer.
binder | readoutKind | endpointValue
EGFRvIII/CD3 TandAb with EGFRvIII binding domain ABC471, domain order (iv) VH^EGFRvIII-VL^CD3-VH^CD3-VL^EGFRvIII (bispecific antibody, part only; not given: CD3 domain and linkers, not shown: small tags and cut ends) chain, part: EVQLVQSGAEVKKPGESLKISCKGSGYSFNSYWIGWVRQMPGKGLEWMGIIYPGDSANRYSPSFQGQVTISADKSISTAYLQWSSLKASDTAMYYCARLGSSWTNDAFDIWGQGTLVTVSSSYELTQPPSVSVSPGQTARITCSGDYLPKQYAYWYQQKPGQAPVLVIYKDTERPSGIPERFSGSSSGTTVTLTISGVQAEDEADYYCQSVDSSHPSVVFGGGTKLTVL | Cytotoxic potency EC50 | 3.1 nM
EGFRvIII/CD3 TandAb with EGFRvIII binding domain ABC470, domain order (i) VL^CD3(v64)-VH^EGFRvIII-VL^EGFRvIII-VH^CD3(v64) (bispecific antibody, part only; not given: CD3 v64 domain and linkers, not shown: small tags and cut ends) chain, part: EVQLVQSGAEVKKPGESLKISCKGSGYSFNSYWIGWVRQMPGKGLEWMGIIYPGDSDTRYSPSFQGQVTISADKSISTAYLQWSSLKASDTAMYYCARLGSSWTNDAFDIWGQGTLVTVSSSYELTQPPSVSVSPGQTARITCSGDALDKQYAYWYQQKPGQAPVLVIYKDSERPSGIPERFSGSSSGTTVTLTISGVQAEDEADYYCQSVDSSETYVVFGGGTKLTVL | Cytotoxic potency EC50 | 4 nM

Exercise: Please look up its Cytotoxic potency EC50: EGFRvIII/CD3 TandAb with EGFRvIII binding domain ABC470, domain order (iv) VH^EGFRvIII-VL^CD3-VH^CD3-VL^EGFRvIII (bispecific antibody, part only; not given: CD3 domain and linkers, not shown: small tags and cut ends) chain, part: EVQLVQSGAEVKKPGESLKISCKGSGYSFNSYWIGWVRQMPGKGLEWMGIIYPGDSDTRYSPSFQGQVTISADKSISTAYLQWSSLKASDTAMYYCARLGSSWTNDAFDIWGQGTLVTVSSSYELTQPPSVSVSPGQTARITCSGDALDKQYAYWYQQKPGQAPVLVIYKDSERPSGIPERFSGSSSGTTVTLTISGVQAEDEADYYCQSVDSSETYVVFGGGTKLTVL
Key: 3.8 nM
